These entries and their values trace back to ChEMBL document CHEMBL1649506.

# Test system: Enterovirus A71
# method_notes: Antiviral activity against 0.001 PFU/cell EV71 TW/2231/98 infected in human RD cells assessed as inhibition of viral plaque formation after 16 hrs by plaque formation assay
# Type: functional, organism-based
# condition_notes: Enterovirus A, TW/2231/98, RD
observable: pEC50
Kindly note that pEC50 refers to -log10 of the concentration in mol/L and answer with the value alone.

(Q) Please report the recorded pEC50 for Cc1ccsc1C(c1ccccc1Br)N1CCN(c2ncnc3c2cnn3-c2ccccc2)CC1 (stereo unspecified) .
(A) 6.13

###

# System: Coxsackievirus A16
# method_notes: Antiviral activity against Coxsackievirus A16 infected in human RD cells assessed as protection against virus-induced cytopathogenicity
# Type: functional, cell-based
# condition_notes: Enterovirus A
observable: EC50 (µM)
State just the number; it will be interpreted in µM.

(Q) // EC50 lookup, key: Cc1ccsc1C(c1ccccc1Br)N1CCN(c2ncnc3c2cnn3-c2ccccc2)CC1 (stereo unspecified)
(A) 0.08

###

# Tested on: Enterovirus A71
# method_notes: Antiviral activity against EV71 harboring VP1 […] V192M mutant gene infected in human RD cells assessed as inhibition of viral plaque formation 16 hrs by plaque formation assay
# Assay type: functional, organism-based
observable: pEC50
Recall that pEC50 is obtained by taking minus log10 of the concentration measured in molar.

(Q) Tell me the measured pEC50 of Cc1ccsc1C(c1ccccc1Br)N1CCN(c2ncnc3c2cnn3-c2ccccc2)CC1 (stereo unspecified) , please.
(A) 6.62

###

# System: Enterovirus A71
# method_notes: Antiviral activity EV71 1743 infected in human RD cells assessed as protection against virus-induced cytopathogenicity
# Assay type: functional, organism-based
# condition_notes: Enterovirus A, 1743, RD
observable: EC50 (nM)
Could you give me the number in nM? Just the number is fine.

(Q) Recorded EC50 of Cc1ccsc1C(c1ccccc1Br)N1CCN(c2ncnc3c2cnn3-c2ccccc2)CC1 (stereo unspecified) , please.
(A) 440

###

# Tested on: Enterovirus A71
# method_notes: Antiviral activity against EV71 harboring 2C […] T256A mutant gene infected in human RD cells assessed as inhibition of viral plaque formation 16 hrs by plaque formation assay
# Assay type: functional, organism-based
# condition_notes: Enterovirus A
observable: EC50 (nM)
Write the value in nM as a bare number.

(Q) Please look up its EC50: Cc1ccsc1C(c1ccccc1Br)N1CCN(c2ncnc3c2cnn3-c2ccccc2)CC1 (stereo unspecified)
(A) 279

###

# Test system: Enterovirus A71
# method_notes: Antiviral activity against 0.001 MOI EV71 infected in human RD cells assessed as inhibition of viral plaque formation 16 hrs by plaque formation assay
# Format: functional, organism-based
# condition_notes: Enterovirus A
observable: pEC50
By convention, pEC50 is the negative base-10 log of a molar concentration.

(Q) Requested read-out pEC50, target or system Enterovirus A71, entry Cc1ccsc1C(c1ccccc1Br)N1CCN(c2ncnc3c2cnn3-c2ccccc2)CC1 (stereo unspecified)
(A) 7.64

###

# Test system: Coxsackievirus B6
# method_notes: Antiviral activity against Coxsackievirus B6 infected in human RD cells assessed as protection against virus-induced cytopathogenicity
# Type: functional, organism-based
# condition_notes: Enterovirus B
observable: EC50 (nM)
// units = nM; emit number, no label

(Q) Provide the documented EC50 with Coxsackievirus B6 as the system for Cc1ccsc1C(c1ccccc1Br)N1CCN(c2ncnc3c2cnn3-c2ccccc2)CC1 (stereo unspecified)
(A) 330
